Entry source: patent US20170145113A1

# system.name: T1, His-tagged human HtrA1 protease domain (human, UniProt Q92743 161-367)
# T1 construct: His-tagged protease domain; also called huHtrA1-PD-His; huHtrA1-PD
# test.details: BIACORE SPR, Fab analyte, Human HtrA1-PD (N=2)
parameter.measured: Kd (nM)
Answers are plain numbers, in nM.

Exercise: Which Kd value is on record for h15H6.v2.APEG Fab (Fab, name in Kabat numbering, V domains shown, also called h15H6.v3; LC-N94A LC-P95 HC-D55E HC-G56) VH: EVQLVQSGAEVKKPGASVKVSCKASGYTFTDSEMHWVRQAPGQGLEWIGGVDPETEGAAYNQKFKGRATITRDTSTSTAYLELSSLRSEDTAVYYCTRGYDYDYALDYWGQGTLVTVSS VL: DIQMTQSPSSLSASVGDRVTITCRASSSVNFIHWYQQKPGKAPKPLISATSNLASGVPSRFSGSGSGTDFTLTISSLQPEDFATYYCQQWSSAPWTFGQGTKVEIK ?
Key: 0.6
